Task for the reader: assign each of the following molecules its reported pIC50.
target.system: Alpha-synuclein (Homo sapiens, UniProt P37840)
experiment: Inhibition of alpha-Synuclein (unknown origin) aggregation incubated for 72 hrs by ThT-based fluorescence analysis
Remember, pIC50 is on a log scale: it is -log10 of the molar concentration.

Asked: Retrieve pIC50 measured for COc1cc(/C=C/C(=O)CC(=O)/C=C/c2ccc(O)c(OC)c2)ccc1O [CURCUMIN] and print it.
Given back: 5.48

Asked: Dear colleague, please send me the reported pIC50 for `COc1cc(/C=C/C(=O)C(=Cc2ccc(O)cc2)C(=O)/C=C/c2ccc(O)c(OC)c2)ccc1O` when you can.
Given back: 5.36
